- Experimental System: HLA-A0201 molecule (Homo sapiens, UniProt P04439, D140Y/D185E/D98H/E176V/E277Q/G131W/G231S/I119V/I121R/I166T/I218V/L300P/L318F/N151K/N90K/P208A/P217A/Q86G/Q94H/R138H/R169H/T345S)
- Method Summary: Experiment of binding peptide to HLA-A0201 molecule (JY cells, flow cytometry)
- Protocol Conditions: expressed as -log Kd value
Ends that are not written are not given here.
Measure Name: Kd (nM)
Return type: number; implicit unit nM.

(Q) Need Kd of FHPEDTGQV [compound 13] , thanks.
(A) 2960

----------
- Experimental System: HLA-A2402 molecule (Homo sapiens, UniProt P04439, D101N/D140Y/D185E/E176V/E190D/F33S/G103R/G107R/I119L/I121M/I306V/K335N/L105A/L180Q/L300P/N151K/N90K/Q86E/Q94H/R106L/R138H/R89G/T104I/T345S/V100E/W191G/Y123F)
- Method Summary: Experiment of binding peptide to HLA-A2402 molecule (C1R-A24 cells, flow cytometry)
- Protocol Conditions: binding to HLA-A2402 molecule, C1R-A24 cells; read-out: BINDING EXPERIMENT DATA (converted)
Ends that are not written are not given here.
Measure Name: Kd (nM)
Return type: number; implicit unit nM.

(Q) Need Kd of WVPVVFLTL [compound 2] , thanks.
(A) 50.9

(Q) How about VHPQKVTKF [compound 7] ?
(A) 223

(Q) How about ILLGRHSLF [compound 3] ?
(A) 33.5

(Q) How about ILSRIVGGW [compound 6] ?
(A) 62

(Q) How about GVLQGITSW [compound 8] ?
(A) 4200

(Q) How about DLPTQEPAL [compound 4] ?
(A) 5870

(Q) How about QVFQVSHSF [compound 5] ?
(A) 47.8
